Data origin, for the record: PubChem BioAssay (NCI)

System: SF-295 CNS
method_notes: NCI tumour cell line growth inhibition, 48 h
attribute_measured: TGI

Sample answers from the record:
molecule: CCC(=O)Nc1cccc(N=Cc2ccc(OC(=O)/C=C\c3ccccc3)cc2)c1
TGI: > 75 µM

molecule: COc1ccc(/C=C/C(=O)c2c(O)ccc3c(C)c(C(=O)O)oc23)cc1
TGI: > 100 µM

molecule: C/C(=N\NC(=S)N1CCN(c2ccccn2)CC1)c1ccccn1
TGI: 12.4 µM

Quick batch: TGI for everything below.
1. CN1C(=O)CC2(C)c3cc(O)cc(Br)c3N(C)C12 (stereo not given)
2. O=C(Cc1ccccc1[N+](=O)[O-])C(CO)c1ccccc1[N+](=O)[O-] (stereo not given)

1. > 100 µM
2. > 100 µM
